Test system: CAKI-1
method notes: NCI tumour cell line growth inhibition, 48 h
Calls of active or inactive are those of the source. Cut-off read from the data, not from the text of the source: active = GI50 up to about 1.1 µM and inactive = higher.
Quick reference: GI50 of the listed items.

Solved cases (3 shown):
INSERT INTO assay_data (molecule, value_observed) VALUES
  ('Cn1c(=O)c2c(nc(N3CCOCC3)n2CCCNCC(O)c2ccc(O)c(O)c2)n(C)c1=O (stereo unspecified)', '> 100 µM (inactive)'),
  ('CC(C)c1cc(C(C)C)c(S(=O)(=O)NN)c(C(C)C)c1', '> 100 µM (inactive)'),
  ('CCCCCCCCCCCCCCCCCCOCC(COCCOCC[N+]1(CCCCCC(=O)[O-])CCCC1)Oc1ncccn1 (stereo unspecified)', '9.51 µM (inactive)');

Exercise: Could you tell me which GI50 is on file for C=C(CN1CC2C[C@](C(=O)OC)(c3cc4ccccc4[nH]3)C1C(OC)C2OC)S(=O)(=O)c1ccccc1 (stereo partly specified) ?
Solution: 3.71 µM (inactive)

Exercise: Okay, and N#Cc1ccccc1NC(=O)c1ccccc1 ?
Solution: > 100 µM (inactive)

Exercise: Okay, and CCOC(=O)c1c(-c2ccccc2)oc(=O)c(Cc2cccc3cccnc23)c1-c1ccccc1 ?
Solution: > 10 µM (inactive)

----------
Test system: KM12
method notes: NCI tumour cell line growth inhibition, 48 h
Calls of active or inactive are those of the source. Cut-off read from the data, not from the text of the source: active = GI50 up to about 1.1 µM and inactive = higher.
# output must be one of active, inactive

Please review the following examples before continuing.
INSERT INTO assay_data (compound, target_under_test, assigned_class) VALUES
  ('O=C(/C=C/c1ccc2c(c1)OCO2)c1ccccc(=O)c1O', 'KM12', 'inactive'),
  ('CCOC(=O)Nc1ccc(S(=O)(=O)NCCCl)cc1.CCOC(=O)Nc1ccc(S(=O)(=O)NCCCl)cc1.O=C(O)c1ccc(/N=N/Cl)cc1O', 'KM12', 'inactive'),
  ('C[N+]1(c2ccccc2)C=C(c2ccccc2)SC1=S (stereo not drawn)', 'KM12', 'inactive'),
  ('O=C1CC2CCN(C(=O)c3ccccc3)CC2CCN1.O=C1CCC2CC(C(=O)c3ccccc3)CCC2CN1 (stereo not drawn)', 'KM12', 'inactive'),
  ('Cc1ccc2c(c1)-c1nc(N)c(C#N)c(-c3ccc(Cl)cc3)c1CCS2(=O)=O', 'KM12', 'inactive');

Exercise: What call does the record list for Cc1nnc2sc(-c3ccc([N+](=O)[O-])o3)nn12 ?
Solution: inactive

Exercise: Okay, and CCNC(=S)N/N=C/c1cc([N+](=O)[O-])ccc1O ?
Solution: inactive

----------
Tested on: LOX IMVI
method notes: NCI tumour cell line growth inhibition, 48 h
Calls of active or inactive are those of the source. No stated cut-off is given here; in the data, active = GI50 up to about 1.1 µM and inactive = higher.
# output must be one of active, inactive

Please review the following examples before continuing.
INSERT INTO results (compound, assigned_class) VALUES
  ('CCOC(=O)CSc1c(C(=O)OCC)c(=O)n(-c2ccccc2)c(=S)n1-c1ccccc1', 'inactive'),
  ('NC1=CN(Cc2ccccc2)C2=N/C(=C\c3ccco3)C(=O)N12', 'inactive'),
  ('OC(CC(O)(C(F)(F)F)C(F)(F)F)C(O)c1ccco1 (centres undefined)', 'inactive'),
  ('C[C@]12CCC(=O)[C@@H](CCC3=CC(=O)C=CC3=O)[C@@H]1CCC2=O', 'inactive'),
  ('CCc1cccc(C(C)C)c1NC(=O)C(=O)CC(=O)c1c(C)[n+]([O-])c2ccccc2[n+]1[O-]', 'inactive');

Exercise: What call does the record list for O=c1[nH]c(=O)n(C2CC(O)C(CO)O2)cc1OCc1ccccc1 (centres undefined) ?
Solution: inactive

Exercise: Okay, and Nc1nc(Cl)cc(NCC2(CO)CC=CC2)n1 ?
Solution: inactive

Exercise: Okay, and CC1=CC(=C(c2ccc(N)c(C)c2)c2ccc(N)c(C)c2)C=CC1=N ?
Solution: inactive

Exercise: Okay, and CCN(CC)CCN1CCN=c2c3cc(OC)ccc3n3cnc4ccc1c2c43 ?
Solution: active

Exercise: Okay, and N#Cc1ccc(Sc2nc3ccccc3[nH]2)cc1 ?
Solution: inactive
